Values compiled from paper PMC13022674.

Assayed System: TDG (thymine DNA glycosylase) (human, UniProt Q13569 1-410)
Sequence (Q13569 whole entry): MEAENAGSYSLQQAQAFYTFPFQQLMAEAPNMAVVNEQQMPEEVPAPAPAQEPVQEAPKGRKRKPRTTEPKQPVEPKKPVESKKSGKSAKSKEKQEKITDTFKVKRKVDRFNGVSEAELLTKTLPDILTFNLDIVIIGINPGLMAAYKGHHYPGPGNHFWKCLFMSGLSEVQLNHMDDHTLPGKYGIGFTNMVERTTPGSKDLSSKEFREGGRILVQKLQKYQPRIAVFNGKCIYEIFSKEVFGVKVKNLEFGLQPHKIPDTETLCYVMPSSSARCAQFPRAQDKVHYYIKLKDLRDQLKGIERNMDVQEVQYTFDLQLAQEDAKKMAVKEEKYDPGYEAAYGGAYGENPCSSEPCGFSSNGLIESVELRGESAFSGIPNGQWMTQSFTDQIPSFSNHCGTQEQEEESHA
Measurement Description: EMSA; Hill 4.9; EMSA: 5 nM substrate, 100 mM NaCl, 2.5 mM MgCl2, 10 mM Tris-HCl pH 7.5, 5% glycerol, 30 min 30 C, 0.6% agarose 1x TBE 4 C; NMR: 0.1 M NaCl, 0.03 mM TCEP, 15 mM
Condition Label: protein: recombinant; tags: His tag (pET28a, TALON purified); label: 5'-FAM strand 1; blunt

- Binder: "H1-5fC (DNA:RNA, 5-formylcytosine at strand 1 pos 20; strand 2 RNA) DNA: TGAGGATGTATATATCTGACGCGCCGGTGGAGC RNA: GCUCCACCGGCGCGUACGAUAUAUACAUCCUCA"
  Unit Descriptor: "nM"
  Kd: 60
